biological target: ER-α (Rattus norvegicus, UniProt P06211); test: ER-α transactivation, ERE-LUC in COS or 293 cells; format: cell-based; set-up: dose or concentration left out as unconfirmed
Sequence (P06211 whole entry): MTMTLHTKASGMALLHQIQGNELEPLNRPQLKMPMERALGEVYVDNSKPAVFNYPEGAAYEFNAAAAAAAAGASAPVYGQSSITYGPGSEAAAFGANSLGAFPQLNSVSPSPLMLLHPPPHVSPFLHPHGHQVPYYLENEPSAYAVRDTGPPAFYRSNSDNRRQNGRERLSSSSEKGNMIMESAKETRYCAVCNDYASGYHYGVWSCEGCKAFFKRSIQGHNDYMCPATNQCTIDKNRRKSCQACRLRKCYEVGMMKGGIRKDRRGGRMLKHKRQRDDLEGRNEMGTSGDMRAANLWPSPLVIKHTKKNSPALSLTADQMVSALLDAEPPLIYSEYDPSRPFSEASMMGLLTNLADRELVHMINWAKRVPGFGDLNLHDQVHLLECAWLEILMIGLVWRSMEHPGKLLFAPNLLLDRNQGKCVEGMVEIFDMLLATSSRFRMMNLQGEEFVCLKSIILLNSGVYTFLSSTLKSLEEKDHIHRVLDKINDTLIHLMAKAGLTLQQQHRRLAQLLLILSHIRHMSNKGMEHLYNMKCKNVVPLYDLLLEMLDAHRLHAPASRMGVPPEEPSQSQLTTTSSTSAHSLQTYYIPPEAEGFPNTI
Below, each entry is listed with its recorded % estardiol activity, ER-α.
Property label: % estardiol activity, ER-α (%)

- Molecule: "CCCc1ccc(C(=O)N(c2ccc(O)cc2)c2ccc(OCCN3CCCCC3)cc2)cc1 [Compound 10o]"
  Measured target: "ER-α (Rattus norvegicus, UniProt P06211)"
  Property label: "% estardiol activity, ER-α"
  Recorded number: 12
- Molecule: "O=C(c1ccc(O)cc1)N(c1ccccc1)c1cccc(O)c1 [Compound 3j]"
  Measured target: "ER-α (Rattus norvegicus, UniProt P06211)"
  Property label: "% estardiol activity, ER-α"
  Recorded number: 62
- Molecule: "Cl.O=C(c1cccc(OCCN2CCCCC2)c1)N(c1ccccc1)c1ccccc1 [Compound 4d]"
  Measured target: "ER-α (Rattus norvegicus, UniProt P06211)"
  Property label: "% estardiol activity, ER-α"
  Recorded number: 16.8
- Molecule: "O=C(c1ccccc1)N(c1ccc(O)cc1)c1ccc(O)cc1 [Compound 3d, N,N-bis-(4-hydroxyphenyl)-benzamide]"
  Measured target: "ER-α (Rattus norvegicus, UniProt P06211)"
  Property label: "% estardiol activity, ER-α"
  Recorded number: 48
- Molecule: "Cc1ccc(C(=O)N(c2ccc(O)cc2)c2ccc(O)cc2)cc1C [Compound 10d]"
  Measured target: "ER-α (Rattus norvegicus, UniProt P06211)"
  Property label: "% estardiol activity, ER-α"
  Recorded number: 21.4
- Molecule: "O=C(c1ccc(O)cc1)N(c1ccc(O)cc1)C1CCCCC1 [Compound 10w]"
  Measured target: "ER-α (Rattus norvegicus, UniProt P06211)"
  Property label: "% estardiol activity, ER-α"
  Recorded number: 21.9
- Molecule: "O=C(c1ccccc1)N(c1ccccc1)c1ccc(O)cc1 [Compound 3g, N-(4-hydroxyphenyl)-N-phenyl-benzamide]"
  Measured target: "ER-α (Rattus norvegicus, UniProt P06211)"
  Property label: "% estardiol activity, ER-α"
  Recorded number: 62.5
- Molecule: "Cl.O=C(c1ccc(F)cc1)N(c1ccc(O)cc1)c1ccc(OCCN2CCCCC2)cc1 [Compound 4h]"
  Measured target: "ER-α (Rattus norvegicus, UniProt P06211)"
  Property label: "% estardiol activity, ER-α"
  Recorded number: 17.4
- Molecule: "O=C(c1ccc(O)cc1)N(c1ccc(O)cc1)c1ccc(O)cc1 [Compound 3a]"
  Measured target: "ER-α (Rattus norvegicus, UniProt P06211)"
  Property label: "% estardiol activity, ER-α"
  Recorded number: 49.5
- Molecule: "O=C(c1ccccc1)N(c1ccc(O)cc1)c1ccc(OCCN2CCCCC2)cc1 [Compound 4a]"
  Measured target: "ER-α (Rattus norvegicus, UniProt P06211)"
  Property label: "% estardiol activity, ER-α"
  Recorded number: 29.9
- Molecule: "O=C(c1ccc(O)cc1)N(c1ccccc1)c1ccc(O)cc1 [Compound 3i]"
  Measured target: "ER-α (Rattus norvegicus, UniProt P06211)"
  Property label: "% estardiol activity, ER-α"
  Recorded number: 77.8
- Molecule: "Cl.Cl.O=C(c1ccc(OCCN2CCCCC2)cc1)N(c1ccccc1)c1ccc(OCCN2CCCCC2)cc1 [Compound 4u]"
  Measured target: "ER-α (Rattus norvegicus, UniProt P06211)"
  Property label: "% estardiol activity, ER-α"
  Recorded number: 12.8
- Molecule: "CCCc1ccc(C(=O)N(c2ccc(O)cc2)c2ccc(O)cc2)cc1 [Compound 10l]"
  Measured target: "ER-α (Rattus norvegicus, UniProt P06211)"
  Property label: "% estardiol activity, ER-α"
  Recorded number: 32
- Molecule: "O=C(c1ccc(O)c(F)c1)N(c1ccccc1)c1ccc(O)cc1 [Compound 10f]"
  Measured target: "ER-α (Rattus norvegicus, UniProt P06211)"
  Property label: "% estardiol activity, ER-α"
  Recorded number: 85
- Molecule: "O=C(c1ccc(O)cc1)N(c1ccccc1)c1ccccc1 [Compound 3e, 4-hydroxy-N,N-diphenyl-benzamide]"
  Measured target: "ER-α (Rattus norvegicus, UniProt P06211)"
  Property label: "% estardiol activity, ER-α"
  Recorded number: 133

The measured values listed here are drawn from patent US8158828B2.
